B1: HDV Ribozyme (parent)
chain: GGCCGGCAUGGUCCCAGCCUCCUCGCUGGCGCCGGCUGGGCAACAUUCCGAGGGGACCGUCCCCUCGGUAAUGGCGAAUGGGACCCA

Variants of: B1
Test: self-cleavage, relative activity (ratio to wild type); higher = more cleavage; co-transcriptional
The entries below are paired with their reported self-cleavage.

Answered examples (5):
variant_notation="G11C C19G" quantity=self-cleavage recorded_value=0.0811
variant_notation="C4A C84G" quantity=self-cleavage recorded_value=0.138
variant_notation="G52U U65A" quantity=self-cleavage recorded_value=0.82
variant_notation="A8G C64A" quantity=self-cleavage recorded_value=0.764
variant_notation="A70C C85G" quantity=self-cleavage recorded_value=1.2

Need self-cleavage of C41G G52C , thanks.
0.509

Next: C22A G31C
0

Next: G53U A78G
0.739

Next: A42C A43U
0.122

Next: C7A A16G
0.249

Next: C3U A71C
0.427

Next: C19G G28A
0.237

Next: C26U G55C
0.954

Data provenance: the RNAGym collection of RNA variant scans (doi:10.7554/elife.80360)
